- ASSAY_INFO: Quantitative highthroughput screen to assess conditional lethalithy of P12 Ichikawa cells grown in Human Plasma-Like Medium with dialyzed fetal bovine serum (HPLM+ds) (AID 1963879); further: nearly all actives have a fitted effect of over 35% in size
- DETAILS: ATP luminescence, 48 h; viability; series mostly up to 45.8 µM
Results filed as inconclusive are left out. Activity calls are given as the source filed them. The call rests on the fitted dose curve; in most records, active means well fitted cell-killing curve with a large enough effect; inconclusive means small, poorly fitted or top-dose-only effect; inactive means flat fitted curve, though single readings scatter.
Classes used: active, inactive

1) O=C(Oc1ccc([N+](=O)[O-])cc1)N1CCC(C(O)(c2ccc3c(c2)OCO3)c2ccc3c(c2)OCO3)CC1 | active
2) C#CC1(O)CCC2C3CCC4=CC(=O)CCC4(C)C3CCC21C (stereo not drawn) | inactive
3) O=c1[nH]c2ccccc2n1CCCN1CCC(n2c(=O)[nH]c3cc(Cl)ccc32)CC1 | inactive
4) CCCC[N+]1(C)[C@H]2CC(OC(=O)[C@H](CO)c3ccccc3)C[C@H]1[C@H]1O[C@H]12 (stereo partly drawn) | inactive
5) C[C@]12CC[C@@H]3[C@@H](CCC4=CC(=O)CC[C@@H]43)[C@@H]1CC[C@@H]2OC(=O)CCc1ccccc1 | inactive
6) C[C@]12CCC(=O)C=C1CC[C@@H]1[C@H]3CC[C@](C)(O)[C@@]3(C)CC[C@@H]12 | inactive
7) CCCCCC[C@H]1C(=O)O[C@H](C)[C@H](NC(=O)c2cccc(NC=O)c2O)C(=O)O[C@@H](C)[C@@H]1OC(=O)CC(C)C | active
8) O=C1CCC[C@@H]2[C@H]3CCCN4CCC[C@@H](CN12)[C@@H]34 | inactive
9) C[C@@H]1[C@@H](C(=O)C[C@H]2O[C@@H]3O[C@]4(C)CC[C@@H]5[C@H](C)CC[C@@H]([C@H]2C)[C@@]35OO4)O[C@@H]2O[C@]3(C)CC[C@H]4[C@H](C)CC[C@@H]1[C@@]24OO3 | active
10) CCC1(c2ccc(N)cc2)CCC(=O)NC1=O (stereo not drawn) | inactive
11) C[C@@]12OC(=O)[C@]1([C@@H](O)[C@@H]1C=CCCC1)NC(=O)[C@H]2CCCl | active
12) COC(=O)[C@@H](N)CCCN=C(N)N[N+](=O)[O-] | inactive
13) C[C@](O)(CS(=O)(=O)c1ccc(F)cc1)C(=O)Nc1ccc(C#N)c(C(F)(F)F)c1 | inactive
14) CC(C)N[C@@H]1CCn2c(=O)[nH]c3cccc(c32)[C@@H]1O | inactive
15) CN1CCN(c2ccc([N+](=O)[O-])c3no[n+]([O-])c23)CC1 | inactive
16) CC(=O)Nc1ccc(OC[C@](C)(O)C(=O)Nc2ccc([N+](=O)[O-])c(C(F)(F)F)c2)cc1 | inactive
17) CSCC[C@@H](NC(=O)[C@@H](Cc1ccccc1)NC(=O)CNC(=O)CNC(=O)[C@@H](N)Cc1ccc(O)cc1)C(=O)O | inactive
18) N[C@@H](Cc1ccc(N(CCCl)CCCl)cc1)C(=O)O | active
